These measurements were taken from ChEMBL document CHEMBL5338802.

The following molecules are listed with their measured MHC values.
- System: Erythrocyte
- experimentalProtocol: Hemolytic activity in human RBC incubated for 4 hrs by visual analysis
- Assay type: toxicity, cell-based
Entry rule: numbers only, all in µg/mL.

CC(C)C[C@H](NC(=O)[C@H](CC(C)C)NC(=O)[C@H](CC(C)C)NC(=O)[C@H](CCCCN)NC(=O)[C@@H](CC(C)C)NC(=O)[C@@H](CC(C)C)NC(=O)[C@H](CCCCN)NC(=O)[C@@H](CC(C)C)NC(=O)[C@@H](CC(C)C)NC(=O)[C@@H](CCCCN)NC(=O)[C@@H](N)CCCCN)C(N)=O = 250

INPUT: Give me measured MHC, please, for this molecule: CC(C)C[C@H](NC(=O)[C@H](CCCCN)NC(=O)[C@H](CC(C)C)NC(=O)[C@H](CC(C)C)NC(=O)[C@@H](CCCCN)NC(=O)[C@H](CC(C)C)NC(=O)[C@H](CC(C)C)NC(=O)[C@@H](CCCCN)NC(=O)[C@H](N)CCCCN)C(=O)N[C@@H](CC(C)C)C(=O)N[C@H](CC(C)C)C(N)=O
OUTPUT: 1000

---

- experimentalProtocol: Induction of membrane disruption in eukaryotic inner membrane mimic EYPC vesicles assessed as carboxyfluorescein leakage at 10 ug/ml measured after 240 secs by fluorescence based assay
- Type: cell membranes
- runConditions: dose 10.0 µg/ml, time 240.0 sec
Non-standard residues stand in square brackets, D forms with d. Residues, ends and D or L forms follow the SMILES beside them.
Catalogue of Activity values
Your answer is read as %, so omit the unit and give the number.

CC(C)C[C@H](NC(=O)[C@H](CC(C)C)NC(=O)[C@@H](CC(C)C)NC(=O)[C@H](CCCCN)NC(=O)[C@@H](CC(C)C)NC(=O)[C@H](CC(C)C)NC(=O)[C@@H](CCCCN)NC(=O)[C@H](CC(C)C)NC(=O)[C@@H](CC(C)C)NC(=O)[C@H](CCCCN)NC(=O)[C@@H](N)CCCCN)C(N)=O = 3
CC(C)C[C@H](NC(=O)[C@H](CCCCN)NC(=O)[C@H](N)CCCCN)C(=O)N[C@@H](CC(C)C)C(=O)N[C@H](CCCCN)C(=O)N[C@H](CC(C)C)C(=O)N[C@H](CC(C)C)C(=O)N[C@@H](CCCCN)C(=O)N[C@@H](CC(C)C)C(=O)N[C@@H](CC(C)C)C(=O)N[C@H](CC(C)C)C(N)=O = 3
CC(C)C[C@H](NC(=O)[C@H](CC(C)C)NC(=O)[C@@H](CC(C)C)NC(=O)[C@@H](CCCCN)NC(=O)[C@H](CC(C)C)NC(=O)[C@H](CC(C)C)NC(=O)[C@@H](CCCCN)NC(=O)[C@@H](CC(C)C)NC(=O)[C@H](CC(C)C)NC(=O)[C@H](CCCCN)NC(=O)[C@@H](N)CCCCN)C(N)=O = 2

INPUT: Return Activity for the following compound: CC[C@H](C)[C@H](NC(=O)[C@@H](NC(=O)[C@@H](NC(=O)[C@@H](CCCNC(=N)N)NC(=O)[C@@H](NC(=O)[C@@H](NC(=O)[C@@H](CCCNC(=N)N)NC(=O)[C@@H](NC(=O)[C@@H](NC(=O)[C@@H](CCCNC(=N)N)NC(=O)[C@H](N)CCCNC(=N)N)[C@@H](C)CC)[C@@H](C)CC)[C@@H](C)CC)[C@@H](C)CC)[C@@H](C)CC)[C@@H](C)CC)C(N)=O (H-[dR][dR]II[dR]II[dR]III-NH2)
OUTPUT: 8

INPUT: Using known records, supply Activity for CC(C)C[C@H](NC(=O)[C@H](CC(C)C)NC(=O)[C@@H](CC(C)C)NC(=O)[C@H](CCCCN)NC(=O)[C@@H](CC(C)C)NC(=O)[C@@H](CC(C)C)NC(=O)[C@H](CCCCN)NC(=O)[C@@H](CC(C)C)NC(=O)[C@@H](CC(C)C)NC(=O)[C@H](CCCCN)NC(=O)[C@@H](N)CCCCN)C(N)=O
OUTPUT: 4

---

- Tested on: Erythrocyte
- experimentalProtocol: Hemolytic activity in human RBC incubated for 4 hrs by visual analysis
- Format: toxicity, cell-based
resultType: MHC (µg/mL)
Number only, in µg/mL; omit the unit.

INPUT: Please give measured MHC of the following entry: CC(C)C[C@H](NC(=O)[C@H](CC(C)C)NC(=O)[C@H](CC(C)C)NC(=O)[C@H](CCCCN)NC(=O)[C@@H](CC(C)C)NC(=O)[C@H](CC(C)C)NC(=O)[C@H](CCCCN)NC(=O)[C@@H](CC(C)C)NC(=O)[C@@H](CC(C)C)NC(=O)[C@@H](CCCCN)NC(=O)[C@@H](N)CCCCN)C(N)=O
OUTPUT: 62.5

---

- Test system: Erythrocyte
- experimentalProtocol: Hemolytic activity in human RBC incubated for 4 hrs by visual analysis
- Assay type: toxicity, cell-based
resultType: MHC (µg/mL)
Give the quantity in µg/mL, number only.

INPUT: Please list MHC recorded for the compound CC(C)C[C@H](NC(=O)[C@@H](CC(C)C)NC(=O)[C@@H](CC(C)C)NC(=O)[C@H](CCCCN)NC(=O)[C@H](CC(C)C)NC(=O)[C@H](CC(C)C)NC(=O)[C@H](CCCCN)NC(=O)[C@H](CC(C)C)NC(=O)[C@@H](CC(C)C)NC(=O)[C@@H](CCCCN)NC(=O)[C@@H](N)CCCCN)C(N)=O
OUTPUT: 1000

---

- Test system: Erythrocyte
- experimentalProtocol: Hemolytic activity in human RBC incubated for 4 hrs by visual analysis
- Format: toxicity, cell-based
MHC: recorded values

Take a look at these entries with their results.
CC(C)C[C@H](NC(=O)[C@H](CC(C)C)NC(=O)[C@H](CC(C)C)NC(=O)[C@H](CCCCN)NC(=O)[C@H](CC(C)C)NC(=O)[C@H](CC(C)C)NC(=O)[C@H](CCCCN)NC(=O)[C@@H](CC(C)C)NC(=O)[C@@H](CC(C)C)NC(=O)[C@@H](CCCCN)NC(=O)[C@@H](N)CCCCN)C(N)=O = < 15.6 µg/mL
CC(C)C[C@H](NC(=O)[C@H](CC(C)C)NC(=O)[C@H](CC(C)C)NC(=O)[C@H](CCCCN)NC(=O)[C@H](CC(C)C)NC(=O)[C@H](CC(C)C)NC(=O)[C@@H](CCCCN)NC(=O)[C@H](CC(C)C)NC(=O)[C@H](CC(C)C)NC(=O)[C@@H](CCCCN)NC(=O)[C@@H](N)CCCCN)C(N)=O = < 15.6 µg/mL

Continue with the compound presented below.
INPUT: Report measured MHC; entry is CC(C)C[C@H](NC(=O)[C@H](CC(C)C)NC(=O)[C@H](CC(C)C)NC(=O)[C@H](CCCCN)NC(=O)[C@@H](CC(C)C)NC(=O)[C@@H](CC(C)C)NC(=O)[C@H](CCCCN)NC(=O)[C@H](CC(C)C)NC(=O)[C@H](CC(C)C)NC(=O)[C@H](CCCCN)NC(=O)[C@@H](N)CCCCN)C(N)=O
OUTPUT: 500 µg/mL

---

- Tested on: Erythrocyte
- experimentalProtocol: Hemolytic activity in human RBC incubated for 4 hrs by visual analysis
- Type: toxicity, cell-based
Non-standard residues stand in square brackets, D forms with d. Residues, ends and D or L forms follow the SMILES beside them.
resultType: MHC (µg/mL)
Please give a number only; it is taken to be in µg/mL.

INPUT: Answer with reported MHC of CC(C)CC(NC(=O)C(CC(C)C)NC(=O)C(CC(C)C)NC(=O)C(CCCCN)NC(=O)C(CC(C)C)NC(=O)C(CC(C)C)NC(=O)C(CCCCN)NC(=O)C(CC(C)C)NC(=O)C(CC(C)C)NC(=O)C(CCCCN)NC(=O)C(N)CCCCN)C(N)=O (racemic)
OUTPUT: 1000

INPUT: Annotate the compound CC(C)C[C@H](NC(=O)[C@H](CC(C)C)NC(=O)[C@@H](CC(C)C)NC(=O)[C@@H](CCCCN)NC(=O)[C@H](CC(C)C)NC(=O)[C@H](CC(C)C)NC(=O)[C@@H](CCCCN)NC(=O)[C@@H](CC(C)C)NC(=O)[C@H](CC(C)C)NC(=O)[C@H](CCCCN)NC(=O)[C@@H](N)CCCCN)C(N)=O with its measured MHC.
OUTPUT: 125

INPUT: Provide MHC value for the following compound: CC(C)C[C@H](NC(=O)[C@H](CC(C)C)NC(=O)[C@H](CC(C)C)NC(=O)[C@@H](CCCNC(=N)N)NC(=O)[C@H](CC(C)C)NC(=O)[C@H](CC(C)C)NC(=O)[C@@H](CCCNC(=N)N)NC(=O)[C@H](CC(C)C)NC(=O)[C@H](CC(C)C)NC(=O)[C@@H](CCCNC(=N)N)NC(=O)[C@H](N)CCCNC(=N)N)C(N)=O (H-[dR][dR]LL[dR]LL[dR]LLL-NH2)
OUTPUT: 125

INPUT: Given CC(C)C[C@H](NC(=O)[C@H](CC(C)C)NC(=O)[C@H](CC(C)C)NC(=O)[C@@H](CCCCN)NC(=O)[C@@H](CC(C)C)NC(=O)[C@@H](CC(C)C)NC(=O)[C@@H](CCCCN)NC(=O)[C@@H](CC(C)C)NC(=O)[C@H](CC(C)C)NC(=O)[C@H](CCCCN)NC(=O)[C@@H](N)CCCCN)C(N)=O , respond with its MHC.
OUTPUT: 250

INPUT: State its MHC: CC(C)C[C@H](NC(=O)[C@H](CC(C)C)NC(=O)[C@@H](CC(C)C)NC(=O)[C@@H](CCCCN)NC(=O)[C@H](CC(C)C)NC(=O)[C@H](CC(C)C)NC(=O)[C@H](CCCCN)NC(=O)[C@@H](CC(C)C)NC(=O)[C@@H](CC(C)C)NC(=O)[C@H](CCCCN)NC(=O)[C@@H](N)CCCCN)C(N)=O
OUTPUT: 1000

INPUT: # return recorded MHC for entry CC(C)C[C@H](NC(=O)[C@H](CC(C)C)NC(=O)[C@H](CC(C)C)NC(=O)[C@H](CCCCN)NC(=O)[C@@H](CC(C)C)NC(=O)[C@@H](CC(C)C)NC(=O)[C@@H](CCCCN)NC(=O)[C@H](CC(C)C)NC(=O)[C@H](CC(C)C)NC(=O)[C@H](CCCCN)NC(=O)[C@@H](N)CCCCN)C(N)=O
OUTPUT: 31.3

INPUT: Look up MHC of CC(C)C[C@H](NC(=O)[C@H](CC(C)C)NC(=O)[C@H](CC(C)C)NC(=O)[C@H](CCCCN)NC(=O)[C@@H](CC(C)C)NC(=O)[C@@H](CC(C)C)NC(=O)[C@H](CCCCN)NC(=O)[C@@H](CC(C)C)NC(=O)[C@@H](CC(C)C)NC(=O)[C@H](CCCCN)NC(=O)[C@@H](N)CCCCN)C(N)=O and report it.
OUTPUT: 1000
